Assay: Binding affinity towards sigma opioid receptor was determined in guinea pig cerebral homogenate using [3H]haloperidol as radioligand
OBSERVABLE: pKi
Kindly note that pKi refers to -log10 of the concentration in mol/L and answer with the value alone.

Please give the measured pKi for this molecule: `C[C@H](Cc1ccccc1)NCCc1ccccc1` 7.21

====

Assay: Binding affinity towards sigma receptor in guinea pig cerebral homogenate using [3H]DTG as radioligand
pKi: −log10 of the molar value.
The threshold is inclusive: pKi of exactly 7 counts as true; values below receive false.

Assess whether reported pKi for `C[C@@H](Cc1ccccc1)NCCCCCc1ccccc1` sits at 7 or higher. true

Assess whether reported pKi for CC(Cc1ccccc1)NCCCCc1ccccc1 (stereo unspecified) sits at 7 or higher. true

Assess whether reported pKi for C=CCN1CCC2(C)c3cc(O)ccc3CC1C2C (stereo unspecified) sits at 7 or higher. false

Assess whether reported pKi for `C[C@H](Cc1ccccc1)NCCC(=O)c1ccccc1` sits at 7 or higher. true

Assess whether reported pKi for C[C@@H](N)Cc1ccccc1 [(R)-amphetamine] sits at 7 or higher. false

Assess whether reported pKi for `C[C@@H](Cc1ccccc1)NCCCCc1ccccc1` sits at 7 or higher. true

Assess whether reported pKi for `CCN[C@H](C)Cc1ccccc1` sits at 7 or higher. false

Assess whether reported pKi for `C[C@H](Cc1ccccc1)NCCOc1ccccc1` sits at 7 or higher. true

Assess whether reported pKi for `C[C@@H](Cc1ccccc1)NCCc1ccccc1` sits at 7 or higher. true

Assess whether reported pKi for `C[C@@H](Cc1ccccc1)N(C)CCCCCc1ccccc1` sits at 7 or higher. true
